- TEST TARGET: 5-HT6 (Homo sapiens, UniProt P50406)
- Sequence (P50406 whole entry, species assumed): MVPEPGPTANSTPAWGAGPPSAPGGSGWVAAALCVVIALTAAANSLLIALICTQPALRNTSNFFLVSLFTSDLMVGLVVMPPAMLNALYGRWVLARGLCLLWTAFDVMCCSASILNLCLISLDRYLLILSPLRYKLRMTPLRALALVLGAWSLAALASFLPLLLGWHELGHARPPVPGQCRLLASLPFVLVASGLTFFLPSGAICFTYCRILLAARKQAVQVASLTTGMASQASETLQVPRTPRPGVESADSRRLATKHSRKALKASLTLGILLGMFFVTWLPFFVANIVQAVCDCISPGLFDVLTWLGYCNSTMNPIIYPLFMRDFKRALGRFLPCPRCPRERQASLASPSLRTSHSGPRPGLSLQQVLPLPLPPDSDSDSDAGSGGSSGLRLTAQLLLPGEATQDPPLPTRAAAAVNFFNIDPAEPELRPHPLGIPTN
REPORTED PROPERTY: Ki (nM)

* COc1cc(CCNCc2ccccc2O)c(OC)cc1C#N.Cl [25CN-NBOH] | 573

---

- TEST TARGET: UniProt P18825
- Sequence (P18825 whole entry): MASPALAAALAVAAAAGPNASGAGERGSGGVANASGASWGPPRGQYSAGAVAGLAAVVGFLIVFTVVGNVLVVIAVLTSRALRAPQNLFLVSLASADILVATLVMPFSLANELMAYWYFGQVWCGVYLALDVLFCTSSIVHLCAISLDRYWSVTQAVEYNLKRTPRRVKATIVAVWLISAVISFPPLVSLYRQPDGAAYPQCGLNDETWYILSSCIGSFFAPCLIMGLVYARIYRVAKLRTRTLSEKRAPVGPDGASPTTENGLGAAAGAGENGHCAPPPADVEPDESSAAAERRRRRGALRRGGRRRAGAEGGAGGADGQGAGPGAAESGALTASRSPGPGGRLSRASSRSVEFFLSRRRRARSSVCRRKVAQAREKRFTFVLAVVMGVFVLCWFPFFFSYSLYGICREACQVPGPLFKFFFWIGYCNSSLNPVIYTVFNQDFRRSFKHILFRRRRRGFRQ
REPORTED PROPERTY: Ki (nM)

• COc1cc(CCNCc2ccccc2O)c(OC)cc1C#N.Cl [25CN-NBOH] = 543

---

- TEST TARGET: UniProt:P07550
- Sequence (P07550 whole entry): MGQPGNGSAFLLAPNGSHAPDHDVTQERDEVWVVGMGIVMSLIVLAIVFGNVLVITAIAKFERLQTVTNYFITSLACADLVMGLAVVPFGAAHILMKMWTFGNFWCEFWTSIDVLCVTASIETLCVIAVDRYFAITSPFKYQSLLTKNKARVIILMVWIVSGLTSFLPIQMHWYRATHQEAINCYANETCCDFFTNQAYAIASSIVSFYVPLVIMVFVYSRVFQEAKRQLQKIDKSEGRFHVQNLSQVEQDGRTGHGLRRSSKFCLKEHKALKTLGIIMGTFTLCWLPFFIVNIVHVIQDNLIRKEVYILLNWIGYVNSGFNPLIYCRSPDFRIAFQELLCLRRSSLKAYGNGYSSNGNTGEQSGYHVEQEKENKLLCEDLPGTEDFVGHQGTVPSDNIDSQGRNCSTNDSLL
REPORTED PROPERTY: Ki (µM)

* COc1cc(CCNCc2ccccc2O)c(OC)cc1C#N.Cl [25CN-NBOH] | 1.61

---

- TEST TARGET: histaminergic H2 (Homo sapiens, UniProt P25021)
- Sequence (P25021 whole entry): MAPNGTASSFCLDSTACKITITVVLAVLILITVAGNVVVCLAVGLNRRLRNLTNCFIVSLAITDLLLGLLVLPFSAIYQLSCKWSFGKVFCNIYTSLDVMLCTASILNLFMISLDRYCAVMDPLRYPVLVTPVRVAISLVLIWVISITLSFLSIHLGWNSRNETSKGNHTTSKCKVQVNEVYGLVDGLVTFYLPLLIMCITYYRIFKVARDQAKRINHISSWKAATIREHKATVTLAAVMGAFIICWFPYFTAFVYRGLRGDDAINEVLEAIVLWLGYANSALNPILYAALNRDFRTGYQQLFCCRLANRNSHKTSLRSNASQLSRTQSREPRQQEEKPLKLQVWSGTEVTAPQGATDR
REPORTED PROPERTY: Ki

* COc1cc(CCNCc2ccccc2O)c(OC)cc1C#N.Cl [25CN-NBOH] | 1510 nM

---

- TEST TARGET: sigma-2 (Rattus norvegicus)
- Sequence (Q5U3Y7 1-176): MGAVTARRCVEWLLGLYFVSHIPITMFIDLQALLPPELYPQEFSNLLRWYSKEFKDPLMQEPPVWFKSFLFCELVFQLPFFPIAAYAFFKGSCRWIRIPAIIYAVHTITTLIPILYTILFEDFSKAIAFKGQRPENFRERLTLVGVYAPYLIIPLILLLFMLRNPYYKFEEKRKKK
pKi: −log10 of the molar value.
REPORTED PROPERTY: pKi

• COc1cc(CCNCc2ccccc2O)c(OC)cc1C#N.Cl [25CN-NBOH] = 6.24
